# Experimental Target: human ERK-2 (Mitogen Activated Kinase 1) (Homo sapiens (Human), UniProt P28482)
# Sequence (P28482 8-360): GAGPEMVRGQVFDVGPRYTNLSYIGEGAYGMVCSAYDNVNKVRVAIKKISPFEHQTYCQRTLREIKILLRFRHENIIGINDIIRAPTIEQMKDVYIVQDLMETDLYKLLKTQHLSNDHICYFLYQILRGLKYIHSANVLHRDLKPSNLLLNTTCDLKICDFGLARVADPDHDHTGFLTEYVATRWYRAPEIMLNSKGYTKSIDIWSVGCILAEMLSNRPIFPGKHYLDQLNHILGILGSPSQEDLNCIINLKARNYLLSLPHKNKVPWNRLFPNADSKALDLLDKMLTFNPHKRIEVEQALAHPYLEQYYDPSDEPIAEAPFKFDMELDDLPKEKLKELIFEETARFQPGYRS
# Method Description: ERK-2 Enzymatic Assay
# Run Conditions: 5 nM ERK-2, 25 μM ATP, Omnia peptide S/T17; read-out: ERK Inhibition IC50
Endpoint: pIC50
Keep it numeric: pIC50 is minus log10 of the concentration in mol/L.

Worked examples follow.
{"Molecule": "CC(CF)Nc1ncc2c(n1)CN(C(=O)N[C@H](CO)c1ccc(Cl)c(Cl)c1)CC2 (some centres unmarked) [Compound I-60]", "pIC50": 8.48}
{"Molecule": "CC(C)Nc1ncc2c(n1)CN(C(=O)N[C@@H](c1ccc(Cl)c(Cl)c1)[C@H](O)CO)CC2 [Compound I-62]", "pIC50": 8.62}
{"Molecule": "N#CC[C@@H](NC(=O)N1CCc2cnc(NC3CCOCC3)nc2C1)c1ccc(F)c(Cl)c1 [Compound I-59]", "pIC50": 9.22}
{"Molecule": "CC(C)Nc1ncc2c(n1)CN(C(=O)N[C@H](CNc1ncccn1)c1ccc(F)c(Cl)c1)CC2 [II-50]", "pIC50": 8.35}
{"Molecule": "O=C(N1CCc2cnc(NC3CCOCC3)nc2C1)N1CCC[C@H]1c1ccccc1 [Compound I-130]", "pIC50": 6.91}

Prompt: Tell me the measured pIC50 of O=C(NCc1cc2ccccc2[nH]1)N1CCc2cnc(NC3CCOCC3)nc2C1 [Compound I-114] , please.
Response: 7.63

Prompt: Tell me the measured pIC50 of COCC(=O)OC[C@@H](NC(=O)N1CCc2cnc(NC3CCOCC3)nc2C1)c1ccc(F)c(Cl)c1 [Compound I-56] , please.
Response: 8.28

Prompt: Tell me the measured pIC50 of O=C(N1CCc2cnc(NC3CCOCC3)nc2C1)N1CCCC1c1ccccn1 (centres unmarked) [II-288] , please.
Response: 7.20
